Here we gather IC50 data for PDE9 (Homo sapiens (Human)) reported by several publications.
Assign labels as follows, please: y for IC50 below 20 nM; n for IC50 equal to or exceeding 20 nM.

[[record]]
compound = "O=C(c1ccc2c(c1)[nH]c(=O)c1cnn(C3CCOCC3)c12)N1CCOC(c2ccc(F)cc2)C1 (centres unmarked)"
classification = "n"

[[record]]
compound = "CCSc1nnc(NC(=O)CSc2nc3c(cnn3-c3ccc(F)cc3)c(=O)[nH]2)s1"
classification = "n"

[[record]]
compound = "Cc1cc(C)c2oc(CSc3nc4c(cnn4C4CCC(F)(F)CC4)c(=O)[nH]3)nc2c1"
classification = "y"

[[record]]
compound = "Cc1cccc2oc(CSc3nc4c(cnn4-c4ccccc4)c(=O)[nH]3)nc12"
classification = "n"

[[record]]
compound = "CCSc1nnc(NC(=O)CSc2nc3c(cnn3C(C)C)c(=O)[nH]2)s1"
classification = "y"


----------
Before we begin, note that these IC50 values for PDE9 (Homo sapiens (Human), UniProt O76083) originate from several publications.
Decide using IC50 alone. Strictly below 4 nM: Condition met. Equal to or above 4 nM: Condition not met.

[[record]]
compound = "COCCCCN1CCN(C(=O)c2cc3c(cc2C)[nH]c(=O)c2cnn(CC4CC4)c23)C[C@@H]1C"
classification = "Condition not met"

[[record]]
compound = "CCSc1nnc(NC(=O)CSc2nc3c(cnn3C3CCSCC3)c(=O)[nH]2)s1"
classification = "Condition met"

[[record]]
compound = "CC(C)(C)c1ccc2oc(CSc3nc4c(cnn4-c4ccccc4)c(=O)[nH]3)nc2c1"
classification = "Condition not met"

[[record]]
compound = "Cc1cc2[nH]c(=O)c3cnn(C4CCOCC4)c3c2cc1C(=O)N1CCN(CCCC(F)(F)F)CC1"
classification = "Condition met"

[[record]]
compound = "CC(C)n1ncc2c(=O)[nH]c(SCC(=O)Nc3nnc(Br)s3)nc21"
classification = "Condition met"

[[record]]
compound = "O=C(CSc1nc2c(cnn2C2CCC(F)(F)CC2)c(=O)[nH]1)Nc1nnc(Br)s1"
classification = "Condition met"

[[record]]
compound = "Cc1cc2[nH]c(=O)c3cnn(C4CCC4)c3c2cc1C(=O)N1CCN(CC2CCOCC2)CC1"
classification = "Condition not met"

[[record]]
compound = "COCC(F)(F)CN1CCN(C(=O)c2cc3c(cc2C)[nH]c(=O)c2cnn([C@H]4CCOC4)c23)CC1"
classification = "Condition not met"

[[record]]
compound = "COc1ccc2oc(CSc3nc4c(cnn4C4CCC(F)(F)CC4)c(=O)[nH]3)nc2c1"
classification = "Condition not met"

[[record]]
compound = "Cc1cc(C)c2oc(CSc3nc4c(cnn4C4CCOCC4)c(=O)[nH]3)nc2c1"
classification = "Condition not met"

[[record]]
compound = "Cc1ccc(-c2nnc(NC(=O)CSc3nc4c(cnn4-c4ccccc4)c(=O)[nH]3)s2)cc1"
classification = "Condition not met"

[[record]]
compound = "CN1CCN(C(=O)c2ccc3c(c2)[nH]c(=O)c2cnn(C4CCOCC4)c23)CC1c1ccccc1 (stereo not shown)"
classification = "Condition not met"

[[record]]
compound = "Cc1cc2[nH]c(=O)c3cnn(C4CCOCC4)c3c2cc1C(=O)N1CCN(CCC(F)(F)F)[C@@H](C)C1"
classification = "Condition met"

[[record]]
compound = "CCOCCCCN1CCN(C(=O)c2cc3c(cc2C)[nH]c(=O)c2cnn(C4CCOCC4)c23)C[C@@H]1C"
classification = "Condition not met"

[[record]]
compound = "COCCCCN1CCN(C(=O)c2cc3c(cc2C)[nH]c(=O)c2cnn(C4CCC4)c23)CC1"
classification = "Condition not met"

[[record]]
compound = "CCSc1nnc(NC(=O)C(C)Sc2nc3c(cnn3C3CCOCC3)c(=O)[nH]2)s1 (stereo not shown)"
classification = "Condition met"

[[record]]
compound = "COCCOc1ccc2[nH]c(=O)c(C#N)c(N3CCC(C)(OC)CC3)c2c1"
classification = "Condition not met"

[[record]]
compound = "CC(C)(C)c1nnc(NC(=O)CSc2nc3c(cnn3-c3ccccc3)c(=O)[nH]2)s1"
classification = "Condition not met"

[[record]]
compound = "COCCC1CCN(C(=O)c2cc3c(cc2C)[nH]c(=O)c2cnn(C4CCOCC4)c23)CC1"
classification = "Condition not met"

[[record]]
compound = "CCSc1nnc(NC(=O)CSc2nc3c(cnn3C3CCOCC3)c(=O)[nH]2)s1"
classification = "Condition met"

[[record]]
compound = "COCCCCN1CCN(C(=O)c2cc3c(cc2C)[nH]c(=O)c2cnn(CC4CC4)c23)CC1.Cl"
classification = "Condition not met"

[[record]]
compound = "Cc1cc2[nH]c(=O)c3cnn([C@H]4CCN(C)C4)c3c2cc1C(=O)N1CCN(c2ccc(F)c(C)n2)[C@@H](C)C1"
classification = "Condition not met"

[[record]]
compound = "O=C(CSc1nc2c(cnn2-c2ccccc2)c(=O)[nH]1)Nc1nnc(Cl)s1"
classification = "Condition not met"

[[record]]
compound = "CCSc1nnc(NC(=O)C(C)Sc2nc3c(cnn3C3CCC(F)(F)CC3)c(=O)[nH]2)s1 (stereo not shown)"
classification = "Condition met"

[[record]]
compound = "C[C@@H]1CN(Cc2ncccn2)C[C@H]1c1nn2c(C3CCOCC3)ncc2c(=O)[nH]1 (single isomer, unassigned)"
classification = "Condition not met"

[[record]]
compound = "COCCCCN1C[C@H](C)N(C(=O)c2cc3c(cc2C)[nH]c(=O)c2cnn(C4CCOCC4)c23)C[C@H]1C"
classification = "Condition met"

[[record]]
compound = "O=C(CSc1nc2c(cnn2C2CC2)c(=O)[nH]1)Nc1nnc(Br)s1"
classification = "Condition not met"

[[record]]
compound = "Cc1cc2[nH]c(=O)c3cnn([C@H]4CCOC4)c3c2cc1C(=O)N1CCC(OCC(F)(F)F)CC1"
classification = "Condition met"

[[record]]
compound = "CCCOC1CCN(C(=O)c2cc3c(cc2C)[nH]c(=O)c2cnn([C@H]4CCOC4)c23)CC1"
classification = "Condition not met"


----------
Dear all, I have gathered published log10 IC50 values for PDE9 (Homo sapiens (Human)); the list follows.
readout_label: log10 IC50 (log10 of the value in nM)

[[record]]
molecule = "COCCCCN1CCN(C(=O)c2cc3c(cc2C)[nH]c(=O)c2cnn(CC4CC(F)(F)C4)c23)C[C@@H]1C"
experimental_system = "PDE9 (Homo sapiens (Human))"
measured_number = 0.79

[[record]]
molecule = "COc1ccc2oc(CSc3nc4c(cnn4-c4ccccc4)c(=O)[nH]3)nc2c1"
experimental_system = "PDE9 (Homo sapiens (Human))"
measured_number = 2.08

[[record]]
molecule = "CCOCCCN1CCN(C(=O)c2cc3c(cc2C)[nH]c(=O)c2cnn(C4CCC4)c23)CC1"
experimental_system = "PDE9 (Homo sapiens (Human))"
measured_number = 1.23

[[record]]
molecule = "CC(C)n1ncc2c(=O)[nH]c(SCc3nc4ccccc4o3)nc21"
experimental_system = "PDE9 (Homo sapiens (Human))"
measured_number = 0.78

[[record]]
molecule = "COC1(C)CCN(c2c(C#N)c(=O)[nH]c3ccc(Br)cc23)CC1"
experimental_system = "PDE9 (Homo sapiens (Human))"
measured_number = 0.90

[[record]]
molecule = "O=c1[nH]c(SCc2nc3c([N+](=O)[O-])cccc3o2)nc2c1cnn2C1CCC(F)(F)CC1"
experimental_system = "PDE9 (Homo sapiens (Human))"
measured_number = 1.89

[[record]]
molecule = "O=c1[nH]c(SCc2nc3cc(Cl)cc(Cl)c3o2)nc2c1cnn2C1CCC(F)(F)CC1"
experimental_system = "PDE9 (Homo sapiens (Human))"
measured_number = 2.08

[[record]]
molecule = "Cc1cc2[nH]c(=O)c3cnn(C4CCOCC4)c3c2cc1C(=O)N1CCC2(CCN(Cc3ccccc3)CC2)CC1"
experimental_system = "PDE9 (Homo sapiens (Human))"
measured_number = 0.96

[[record]]
molecule = "COCCCCN1CCN(C(=O)c2cc3c(cc2C)[nH]c(=O)c2cnn(C4CCOCC4)c23)CC1.Cl"
experimental_system = "PDE9 (Homo sapiens (Human))"
measured_number = 0.97

[[record]]
molecule = "CCOCCC1CCN(C(=O)c2cc3c(cc2C)[nH]c(=O)c2cnn(C4CCOCC4)c23)CC1"
experimental_system = "PDE9 (Homo sapiens (Human))"
measured_number = 0.63

[[record]]
molecule = "O=C(CSc1nc2c(cnn2-c2ccccc2)c(=O)[nH]1)Nc1nncs1"
experimental_system = "PDE9 (Homo sapiens (Human))"
measured_number = 2.36

[[record]]
molecule = "Cc1ccc2nc(CSc3nc4c(cnn4-c4ccccc4)c(=O)[nH]3)oc2c1"
experimental_system = "PDE9 (Homo sapiens (Human))"
measured_number = 1.69

[[record]]
molecule = "O=C(CSc1nc2c(cnn2C2CC2)c(=O)[nH]1)Nc1nnc(Cl)s1"
experimental_system = "PDE9 (Homo sapiens (Human))"
measured_number = 1.56

[[record]]
molecule = "COCCCCN1CCN(C(=O)c2cc3c(cc2C)[nH]c(=O)c2cnn(C4CCC(F)(F)CC4)c23)C[C@@H]1C"
experimental_system = "PDE9 (Homo sapiens (Human))"
measured_number = 0.76

[[record]]
molecule = "O=c1[nH]c(SCc2nc3ccccc3o2)nc2c1cnn2C1CC1"
experimental_system = "PDE9 (Homo sapiens (Human))"
measured_number = 2.34

[[record]]
molecule = "CCSc1nnc(NC(=O)C(C)Sc2nc3c(cnn3-c3ccccc3)c(=O)[nH]2)s1 (stereo not shown)"
experimental_system = "PDE9 (Homo sapiens (Human))"
measured_number = 1.00

[[record]]
molecule = "CC(Sc1nc2c(cnn2C2CCC(F)(F)CC2)c(=O)[nH]1)C(=O)Nc1nnc(Br)s1 (stereo not shown)"
experimental_system = "PDE9 (Homo sapiens (Human))"
measured_number = -1.00

[[record]]
molecule = "CC(Sc1nc2c(cnn2-c2ccccc2)c(=O)[nH]1)C(=O)Nc1nnc(Br)s1 (stereo not shown)"
experimental_system = "PDE9 (Homo sapiens (Human))"
measured_number = 0.85

[[record]]
molecule = "Cc1ccc2oc(CSc3nc4c(cnn4-c4ccccc4)c(=O)[nH]3)nc2c1"
experimental_system = "PDE9 (Homo sapiens (Human))"
measured_number = 1.91

[[record]]
molecule = "O=c1[nH]c(SCc2nc3ccccc3o2)nc2c1cnn2C1CCCCC1"
experimental_system = "PDE9 (Homo sapiens (Human))"
measured_number = 0.60

[[record]]
molecule = "Cc1cc2[nH]c(=O)c3cnn(C4CCOCC4)c3c2cc1C(=O)N1CCC(OC[C@@H](C)F)CC1"
experimental_system = "PDE9 (Homo sapiens (Human))"
measured_number = 0.99

[[record]]
molecule = "COCC1CCN(C(=O)c2cc3c(cc2C)[nH]c(=O)c2cnn(C4CCOCC4)c23)CC1.Cl"
experimental_system = "PDE9 (Homo sapiens (Human))"
measured_number = 0.96

[[record]]
molecule = "CCCOC1CCN(C(=O)c2cc3c(cc2C)[nH]c(=O)c2cnn(C4CCOCC4)c23)CC1"
experimental_system = "PDE9 (Homo sapiens (Human))"
measured_number = 0.59

[[record]]
molecule = "Cc1cc2[nH]c(=O)c3cnn(C4CCOCC4)c3c2cc1C(=O)N1CCC2(CCCO2)CC1"
experimental_system = "PDE9 (Homo sapiens (Human))"
measured_number = 1.08

[[record]]
molecule = "Cc1cc2[nH]c(=O)c3cnn(C4CCOCC4)c3c2cc1C(=O)N1CCN(c2cnccn2)CC1"
experimental_system = "PDE9 (Homo sapiens (Human))"
measured_number = 0.88

[[record]]
molecule = "Cc1cc2[nH]c(=O)c3cnn([C@H]4CCOC4)c3c2cc1C(=O)N1CCC(OCC(C)(F)F)CC1"
experimental_system = "PDE9 (Homo sapiens (Human))"
measured_number = 0.98

